B1: IQUB (parent)
chain: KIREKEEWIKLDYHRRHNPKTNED

- Variants of: B1
- PROCEDURE_TEXT: protein stability index of a GFP-peptide fusion (GPS, HEK-293T) (PSI 1-6); higher = more stable;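 further: lentivirally expressed fusions sorted by FACS into six bins by GFP to DsRed ratio, PSI derived from sequencing read proportions per bin multiplied by bin number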
- RUN_PARAMETERS: c terminus: a fixed tail appended
REPORTED_ENDPOINT: protein stability index
The answer should be a number; do not append a unit.

# query: protein stability index of entry KNREKEEWIKLDYHRRHNPKTNED [I2N]
5

# query: protein stability index of entry KIREKEEWIELDYHRRHNPKTNED [K10E]
5.3

# query: protein stability index of entry KIREKEEWIKLDYHRRHNPKRNED [T21R]
4.82

# query: protein stability index of entry KIREKEEWIKLDYHRRHFPKTNED [N18F]
4

# query: protein stability index of entry KIREKEEWIKLDYHRRHVPKTNED [N18V]
4.32

# query: protein stability index of entry KIREKPEWIKLDYHRRHNPKTNED [E6P]
3.58

# query: protein stability index of entry KIREVEEWIKLDYHRRHNPKTNED [K5V]
3.4

# query: protein stability index of entry KIREKEEWIVLDYHRRHNPKTNED [K10V]
4.2

# query: protein stability index of entry KIREKEEWIKLDYHRRHNPKTNVD [E23V]
4.18

# query: protein stability index of entry DIREKEEWIKLDYHRRHNPKTNED [K1D]
4.99

# query: protein stability index of entry KIHEKEEWIKLDYHRRHNPKTNED [R3H]
4.67

# query: protein stability index of entry KIREKEEWIKLDYHRRHNPKTPED [N22P]
4.36

# query: protein stability index of entry KIREKEIWIKLDYHRRHNPKTNED [E7I]
3.36

# query: protein stability index of entry KAREKEEWIKLDYHRRHNPKTNED [I2A]
4.88

# query: protein stability index of entry KIREKEEWIKLDGHRRHNPKTNED [Y13G]
4.99

# query: protein stability index of entry KIREKEEWIKLDHHRRHNPKTNED [Y13H]
4.87

# query: protein stability index of entry KIREKEEWIKLDYHRRHNPKWNED [T21W]
3.77

# query: protein stability index of entry KIREKEEWIKLDYHRRHKPKTNED [N18K]
4.46

# query: protein stability index of entry KIREKEEWIKLMYHRRHNPKTNED [D12M]
3.7

# query: protein stability index of entry KICEKEEWIKLDYHRRHNPKTNED [R3C]
4.8

# query: protein stability index of entry KPREKEEWIKLDYHRRHNPKTNED [I2P]
3.84

# query: protein stability index of entry KIREKEEWAKLDYHRRHNPKTNED [I9A]
5.24

# query: protein stability index of entry KIREKEEWIKLDVHRRHNPKTNED [Y13V]
4.64

# query: protein stability index of entry KIREKEEWIKLDYHRRHNPKTNGD [E23G]
4.44

# query: protein stability index of entry KIREKEEWIKLDYHRRHNPKTNEP [D24P]
3.66

# query: protein stability index of entry KIREKEEPIKLDYHRRHNPKTNED [W8P]
5.25

# query: protein stability index of entry KIREKEEWIKLAYHRRHNPKTNED [D12A]
4.07

# query: protein stability index of entry KIREKEEWPKLDYHRRHNPKTNED [I9P]
4.94

# query: protein stability index of entry MIREKEEWIKLDYHRRHNPKTNED [K1M]
4.14

# query: protein stability index of entry KIREKEEWIKLDYHRHHNPKTNED [R16H]
4.4

# query: protein stability index of entry KIREKEEWIKLDYHRPHNPKTNED [R16P]
4.75

# query: protein stability index of entry KIRQKEEWIKLDYHRRHNPKTNED [E4Q]
3.82

# query: protein stability index of entry KIREKEEWIKLDYHRRHNPFTNED [K20F]
2.51

# query: protein stability index of entry KIREKEEWIKLDYHFRHNPKTNED [R15F]
4.23

# query: protein stability index of entry KIREKEEWFKLDYHRRHNPKTNED [I9F]
3.96

# query: protein stability index of entry KVREKEEWIKLDYHRRHNPKTNED [I2V]
4.67

# query: protein stability index of entry KIYEKEEWIKLDYHRRHNPKTNED [R3Y]
4.29

# query: protein stability index of entry KIREKEEWIALDYHRRHNPKTNED [K10A]
4.65

# query: protein stability index of entry KIREKEEWNKLDYHRRHNPKTNED [I9N]
5.07

# query: protein stability index of entry IIREKEEWIKLDYHRRHNPKTNED [K1I]
4.02

# query: protein stability index of entry KIREKEEWIKLDYHRRHNPKTNEQ [D24Q]
4.13

# query: protein stability index of entry KIREKEHWIKLDYHRRHNPKTNED [E7H]
4.34

# query: protein stability index of entry KIREKDEWIKLDYHRRHNPKTNED [E6D]
4.31

# query: protein stability index of entry KIREKEEWIKLDYHRRHNPKTFED [N22F]
3.84

# query: protein stability index of entry KIREKEEWIKLDYCRRHNPKTNED [H14C]
4.46

# query: protein stability index of entry KIREKEEWIKLDYHRRHNPKTNEK [D24K]
4.42

Taken from the supplement of paper PMC10567573.
